B1: Subtilisin-chymotrypsin inhibitor-2A, P01053 (parent)
chain: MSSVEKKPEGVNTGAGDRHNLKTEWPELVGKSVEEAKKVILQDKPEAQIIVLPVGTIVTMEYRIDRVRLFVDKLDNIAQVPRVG

Variants of: B1
Details: Hordeum vulgare; pH 3; 25 °C; Thermal; DSC; MES 450 mM; reversible: yes; structure 2CI2; whole UniProt chain shown
Would you kindly list ddG of mutation (higher = less stable) for each of these variants?
Give the value, in units of kcal/mol, as a plain number.

What measured ddG of mutation (higher = less stable) goes with I40V ?
1.2

ddG of mutation (higher = less stable) lookup needed for V71A , thanks.
2.17

Reported ddG of mutation (higher = less stable) for V39A : what is it?
0.46

Returns the measured ddG of mutation (higher = less stable) for the input variant. Input: I77V
-0.09

I have this variant here, I77A , and I need its recorded ddG of mutation (higher = less stable).
4.23
